# Test system: K4 kissing-loop RNA reporter;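 note: bound reporter read as fluorescence of individual clusters on recovered sequencing chips by microscopy, with normalized cluster intensities fitted with a binding model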
# ASSAY SUMMARY: apparent KD of K4 kissing-loop reporter; higher = weaker reporter binding
# CONDITION SET: Eterna round: R107; input ligand: FMN 200 uM
PROPERTY: apparent KD of K4 kissing-loop reporter (nM)
Use nM as the unit, but write only the number.

# BIOSEQUENCE, apparent KD of K4 kissing-loop reporter [nM]
data = [
    ("UGGAGUUGACGAAAAGUCAACUCCUGAGAAGGAGCGGACGAAAGUCCAGGUAGGUCGCUCACUACCAGUGAUGUUGGUACUGAAA", 187),
    ("AACUGUUGGGAAGGAUAUUAUGGUGGCUAAAUCCAGUGAUGUUGGAAAUCGGUACUCGCCCACCUUUAAGAAGGUCCGUGAAAGA [theeternabot_sameState_KL_FMN_B_6]", 152),
    ("GCCGUAGAUUGAAGGAGCGUGGACCUAUCGCUUGAACAGUGAUGUUGUUUAUCUAGGAAGCCGCAGGUAGGUCGCAAUCUACGGC", 331),
]

Endpoint output: apparent KD of K4 kissing-loop reporter of AGACUUCACCGAAGGAGCGACGUAGCCUAGUGAUGUUAGGCGCGAGAGAAAUCUCGUAUACGUCAGGUAGGUCGCGGUGAAGUCA [Omei KL Arginine B SS C v4] . Value?
163

# input sequence: CCCUCACGAGUGAUGUUCGUAGGGUACAGUCAGGAUAUCAUGCGGUUGAGAAGGGACAGAGAGGGCGGCCACUGGUUGCUCUUCU [Tiatesqu] ; wanted: its apparent KD of K4 kissing-loop reporter
150

What does the data say about its apparent KD of K4 kissing-loop reporter? Entry: GAGAUAGAGGCGGCCGCCACUAGUGAUGUUAGUGAUGUUAGAAAGAGAAUAGAACAGGGAUUUGAUAGGACCGGGCCAGAUGGAG [wwemullin]
57.6

Can you share its apparent KD of K4 kissing-loop reporter? I mean this sequence: UCUGCUGUAUAUGAUACCAGCAGUGAGAGACCAGAAGUAUAGUGAUGUUAUAUGAGAGAAUGCCCUUGGCAGCGUGUGCGGGUGG [SSTheophylB.Z]
85.4

Query (sequence): UGGACCUGACUCGAUAAGAGUCAAUGAGAUACCAGUGACGAAAGUCACCCUUGGCAGCUCAACUGCCAGUGAUGUUGGUGGUCCU [#SwitchBubble 2 #StaticStem] ; field requested: apparent KD of K4 kissing-loop reporter
605

Suppose we examine the sequence UCCUAUACCCUUCCCGGACGCCGUGGAGAUACCAGCCACGUAGCGGGCCCUUGGCAGCUCGAGUGAUGUUCGAGAUCGUCAGGAU [Veteve] ; what apparent KD of K4 kissing-loop reporter value has been reported?
136

I am curious: what apparent KD of K4 kissing-loop reporter value has been reported for AUAAUAUUGCGAGGAUAUCCUUCCCACGUCGAAGUACCGUGCUUGAUGGAGUGAUGUUCGAUCAGAGGAGAAGGCGCGGUGUUGU [Same State FMN B GF23] ?
734

Can you share its apparent KD of K4 kissing-loop reporter? I mean this sequence: AUACCUCUACGAGUGAUGUUUGUUGAGGAUACCAGCAUGUAUAGUUGCCCUUGGCAGCCUUGGCUCGUGCGCUCCCUCCGAACCG [theeternabot_exclusion_KL_Theo_A_30]
296

Which apparent KD of K4 kissing-loop reporter is reported for this sequence? GUCGGGACUCGAGGAUAUCAGUGGAGGCCAGUGAUGUUGGCCGUCCCGGUAGUUAAAAUUUUACCCUGAGAAGGCGAUUUCUGUC [Veceinusqu]
142

----------
# Test system: MS2 coat protein
# ASSAY SUMMARY: apparent KD of MS2 coat protein; higher = weaker reporter binding
# CONDITION SET: Eterna round: R107; input ligand: none
Label NOT MET if apparent KD of MS2 coat protein falls below 40 nM; label MET in every other case.

# example entries with known answers
# BIOSEQUENCE, CLASS LABEL
rows = [
    ("GGGCCCGGGCCCGCGCGGGCCCGGGCCCAACGAGGACCGGUACGGCCGCCACUCGAACGAGUGGGUACAUGAGGAUCACCCAUGU [Baa]", "NOT MET"),
    ("ACGUAAAGCAGAAGGAGCGUCUUCAAAUUACAUGAGGAUCACCCAUGUUUUGUGAUCAUAUGACAGGUAGGUCGCUGAAGUACGA [JR_SSArginiB_Sub003]", "MET"),
    ("ACAUGAGGAUCACCCAUGUACAUAAGGGAAGGAGCGCGGUGAAACGCAGGUAGGUCGCCCAUAAUAACAAUAAAUAAAUUCAUGU [LeftA1]", "NOT MET"),
    ("ACAUGAGGAUCACCCAUGUACAUGAGGGAAGGAGCGGUACAUGUGCCAGGUAGGUCGCCCAACAGCAUCAGCCAUGUACAUCAGC [ppsmullin]", "MET"),
    ("UGUAUGUGAUCUGAUACCAGAGUUGAUAAUCUGAGGAUCACCCUGGUAAGGCGAAAGCCGCUCCCUUGGCAGCAGAUCGCAUACU", "MET"),
]

Check the entry UGACAUGAGGAUCACCCAUGUGUAAGAGAAGGAGCGGCCGGAAGGCCAGGUAGGUCGCUCAGGUAGCGUGAGGAUCACCCGUGUG [big_hook] : does apparent KD of MS2 coat protein equal or exceed 40 nM?
MET

Given AAUCAUGGAAACAUGACAUGAGGGUUGCUCCGAGGACCGGUACGGCCGCCACUCGCGAGGAGGCGGACAUGAGGAUCACCCAUGU [#05 Tryptophan A Same State] , state whether its apparent KD of MS2 coat protein is at least 40 nM.
MET

Could you please find out whether ACAGGAAACGGAAGGAGCGGAAUUGCAACAUGAGGAUCACCCAUGUUGAUCGUGAGUUGCUUCCAGGUAGGUCGCCGUUACCUAA [Erorve] has apparent KD of MS2 coat protein that meets 40 nM or exceeds it?
NOT MET

I'd appreciate it if you could say whether CGAACAUGAGGAUCACCCAUGUUAACCGAAGGAGCGGCGCAUAAGUCAGGUAGGUCGCGGUAGAUGAAAUAGAGCAGUGGUGACA [#01 Same State - Arginine A] has apparent KD of MS2 coat protein at least equal to 40 nM.
NOT MET

----------
# Tested on: MS2 coat protein
# ASSAY SUMMARY: apparent KD of MS2 coat protein; designed switch direction (-1 OFF switch, 1 ON switch): -1; higher = weaker reporter binding
# CONDITION SET: input ligand: none
Recorded apparent KD of MS2 coat protein, one value per entry.
A number alone suffices; assume nM.

Notebook: pull reported apparent KD of MS2 coat protein for MS2 coat protein, entry CCACAUGCAGGAUAUGUAAAAUUUGACAUGAGGAUCACCCAUGUAGAUCCUGAAUUUCCUGCAGAAGGGCAUGUGG [Mat - Exclusion 5 - Eli Mod - D19] (Eterna round: R97, puzzle: Exclusion 5)
149

----------
# Test system: MS2 coat protein
# ASSAY SUMMARY: apparent KD of MS2 coat protein; designed switch direction (-1 OFF switch, 1 ON switch): 1; higher = weaker reporter binding
# CONDITION SET: Eterna round: R95; input ligand: none
// reported apparent KD of MS2 coat protein for each item listed
Express it in nM; write the number only.

Worked cases, apparent KD of MS2 coat protein given:
# BIOSEQUENCE, PROPERTY, OBSERVED
data = [
    ("GGUCCAGCCUGAGCUGGACAAAAGCAUGUACAUGAGGAUCACCCAUGUCAUGUACAAGCUUUUUGCUCGUCAUAAUG [Mat - hsa-mir-208a - 99] (puzzle: Sensor for hsa-mir-208a)", "apparent KD of MS2 coat protein", 806),
    ("AUUAUACAUGAGGAUCACCCAUGUCAAUGUAGUCGAGGAUAUGGGCAGCUGUGAGGCGUACUAGAAGGCGAAGAGA [Mat - Same State 1 - Mod of JL - D9] (puzzle: Same State 1)", "apparent KD of MS2 coat protein", 222),
    ("AGUCCAGCGAAAGCUGGACAGAAGCAUGUACAUGAGGAUCACCCAUGUUCAUGUACAAGCUUUUUGCUCGUCUUAAA [JL mod - D95 - 1] (puzzle: Sensor for hsa-mir-208a)", "apparent KD of MS2 coat protein", 418),
]

// switching to the query sequence
// lookup apparent KD of MS2 coat protein for AUUUAACAAGCUUUUUGCUCGUCUUAUAAACAUGAGGAUCACCCAUGUAAUAGCGUGAGAGUAAAUUAAUAAAUAAU [JMF 83] (puzzle: Sensor for hsa-mir-208a)
13.5

----------
Item-by-item account of apparent KD of MS2 coat protein
# Test system: MS2 coat protein
# ASSAY SUMMARY: apparent KD of MS2 coat protein; higher = weaker reporter binding
# CONDITION SET: Eterna round: R107; input ligand: arginine 13.2 mM
Return type: number; implicit unit nM.

Here are 3 sequences together with their reported answers.
# BIOSEQUENCE, apparent KD of MS2 coat protein, nM
measured = [
    ("GCUGUACCAUGAAGGAGCGUCAUGGAUUGCGAAUACACAUGAGGAUCACCCAUGUUUUUAUGACAGGUAGGUCGCAUGGUACAGC [#01 Same State - Arginine B]", 17.8),
    ("GGCACAUAGUCGGCCGCCACUAGGGUGUAGUGGAAUAACAUGAGGAUCACCCAUGUAUUUGGGACUAGGACCGGGACUAUGUGCC [Leopard]", 27.2),
    ("AUGGCGUUGGUGGAGCGGUGAAAUGGCGAUACCAGCGUGGAAACACGCCCUUGGCAGCGCCAAAACAUGAGGAUCACCCAUGUUA [Usti]", 18.9),
]

# lookup: apparent KD of MS2 coat protein of UGACAUGAGGAUCACCCAUGUGUAAGAGAAGGAGCGGCCGGAAGGCCAGGUAGGUCGCUCAGGUAGCGUGAGGAUCACCCGUGUG [big_hook]
81.8

// lookup apparent KD of MS2 coat protein for UAUAGUGUGAUGGAUACCAGCAGAGAAAACGUUUAUCCUAACAUGAGGAUCACCCAUGUAUGCCCUUGGCAGCUGUUGUGUUAUA [8.O]
28.9

Which value of apparent KD of MS2 coat protein has been reported for AGAGUCAGACAAAAGUCUGGCUCAGCCGAAGGAGCGUCCGAAAGGACAGGUAGGUCGCGGUUACCUGAGGAUCACCCAGGUUCCU [ArgAS 24 #OpenEnded #AlternativeMS2] in the records?
53.8

Can you look up the measured apparent KD of MS2 coat protein of AAGCAGGGUGUAAAAUAAAUAAUCACUGAUACCAGACUAUGAGAUGUCCCUUGGCAGCAGAAACAUGAGGAUCACCCAUGUAAUA [JR_Nu_ExcTheophyA_Sub029] for me?
21.1

Can you share its apparent KD of MS2 coat protein? I mean this sequence: AACUAAUCACAUGAGGAUCACCCAUGUGAUACCAGCUAAUCCCAAAGCCCUUGGCAGCACCUUUGGGUCCCGGUGUGUUUGAACA [Onceesa]
9.42

Please look up its apparent KD of MS2 coat protein: CCAUACGUAACUGAUACCAGUGUACUGACAUGAGGAUCACCCAUGUUGGGUUUUGUUGUACACCCUUGGCAGCAGAAUCGUAUGG [AstrosExyTheB#19]
56.5
